B1: FBXO3 (parent)
chain: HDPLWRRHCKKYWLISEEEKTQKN

# Variants of: B1
# Measurement notes: protein stability index of a GFP-peptide fusion (GPS, HEK-293T) (PSI 1-6); higher = more stable;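 also: lentivirally expressed fusions sorted by FACS into six bins by GFP to DsRed ratio, PSI derived from sequencing read proportions per bin multiplied by bin number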
# Measurement context: c terminus: a fixed tail appended
Parameter measured: protein stability index

>>> readout_value("N24K")
2.79
>>> readout_value("W5I")
3.99
>>> readout_value("K10W")
2.95
>>> readout_value("W5E")
4.07
>>> readout_value("L14F")
3
>>> readout_value("I15K")
3.47
>>> readout_value("Q22T")
3.42
>>> readout_value("E18S")
3.01
>>> readout_value("S16R")
3.27
>>> readout_value("H8L")
1.88
>>> readout_value("N24V")
3.02
>>> readout_value("H8I")
1.63
>>> readout_value("P3K")
3.03
>>> readout_value("D2C")
2.26
>>> readout_value("K11D")
3.12
>>> readout_value("D2A")
2.58
>>> readout_value("H1K")
3.21
>>> readout_value("L4K")
2.95
>>> readout_value("I15M")
3.16
>>> readout_value("K23I")
2.93
>>> readout_value("H1G")
3.29
>>> readout_value("H8K")
2.89
>>> readout_value("P3F")
2.41

Where these numbers come from: the supplement of paper PMC10567573
